Assay: NCI Yeast Anticancer Drug Screen. Data for the mlh1 rad18 strain (AID 175)
Settings: S. cerevisiae mlh1 rad18 strain growth inhibition; at 50.0 µM (retest, dose inferred, filed as 5.0)
About 79,000 compounds went through this panel and 15% of them were active in at least one assay; those are over-represented in the sample as a whole. The source made the active and inactive calls. Rule as the data show it: active = growth inhibition above about 70%; inactive = the rest.
Respond using exactly one of the listed classes: label 1 = active, label 0 = inactive

Here's what some known entries look like.
CC1(c2ccccc2)NC(=O)N(CC(=O)N(c2ccccc2)c2ccccc2)C1=O (stereo not drawn)    label 0
COc1ccccc1Nc1nc(SC)ncc1SC    label 1
Cc1cc(Cl)ccc1NC(=O)CC1SC(=NC(=O)c2ccccc2Cl)NC1=O (stereo not drawn)    label 1
CC(=O)N/N=C1/CC[C@@]2(C)C(=CC[C@H]3C4CCC(C(C)CCCC(C)C)[C@@]4(C)CCC32)C1(C)C (stereo partly drawn)    label 1
CCCC(C(=O)OCCN1CCCC1(C)C)C1CCCC1 (stereo not drawn)    label 0

Exercise: Assay result, entry CC(C)(Oc1ccc(-c2cccc3ccccc23)cc1)C(=O)O — outcome?
Solution: label 0

Exercise: And O=C1CSC(Cc2nc3ccccc3[nH]2)=N1 ?
Solution: label 1

Exercise: And Oc1ccc(O)c2c(O)c3ccccc3c(O)c12 ?
Solution: label 1
